# Assay Conditions: buffer; pH 7.4; 200.0 µM
Property Measured: solubility kinetic

Fill blank: measured solubility kinetic of the molecule COc1cc2nc(-c3ccccc3C)oc(=O)c2cc1OC is ____.
< 0.6 µg/mL

Fill blank: measured solubility kinetic of the molecule N/C(CSc1ccccn1)=N\OCc1c(Cl)cccc1Cl is ____.
29 µg/mL

Fill blank: measured solubility kinetic of the molecule O=C(COC(=O)Cc1c[nH]c2ccccc12)Nc1cc(S(=O)(=O)N2CCOCC2)ccc1Cl is ____.
12.7 µg/mL

Fill blank: measured solubility kinetic of the molecule COc1ccc(Cl)cc1C(=O)NCCN1CCOCC1 is ____.
> 44.8 µg/mL

Fill blank: measured solubility kinetic of the molecule CCCNC(=O)c1ccc(C)c(NC(=O)C2=C(C)OCCS2)c1 is ____.
> 50.2 µg/mL

Fill blank: measured solubility kinetic of the molecule CSc1nsc(SC)c1C(=O)O is ____.
> 33.2 µg/mL

Fill blank: measured solubility kinetic of the molecule COc1ccc(CNC(C)Cc2cccs2)cc1 (centres undefined) is ____.
30.4 µg/mL

Fill blank: measured solubility kinetic of the molecule CCCS(=O)(=O)C/C(N)=N/OC(=O)c1ccc(Cl)cc1 is ____.
34.3 µg/mL

Fill blank: measured solubility kinetic of the molecule CN(C)c1cccc(C(=O)OCC(=O)N(C)c2ccccc2)c1 is ____.
> 46.9 µg/mL

Fill blank: measured solubility kinetic of the molecule O=C(NCCCN1CCCC1)Nc1ccc(F)cc1 is ____.
35.2 µg/mL

Fill blank: measured solubility kinetic of the molecule Cc1cc(C(=O)Nc2ccc(C#N)cc2)on1 is ____.
10.3 µg/mL

Fill blank: measured solubility kinetic of the molecule COc1c2c(nc3occc13)C(CC=C(C)C)(OC)C(=O)C=C2 (centres undefined) is ____.
> 47 µg/mL

Fill blank: measured solubility kinetic of the molecule COc1cc(=O)[nH]c(SC(C)C(=O)Nc2ccc3ccccc3c2)n1 (centres undefined) is ____.
0.8 µg/mL

Fill blank: measured solubility kinetic of the molecule CC(=O)Nc1cccc(Oc2ccc3c(c2)C(=O)NC3=O)c1 is ____.
> 44.4 µg/mL

Fill blank: measured solubility kinetic of the molecule C/C(N)=C(/C#N)C(=O)COC(=O)c1cccc(O)c1 is ____.
> 39 µg/mL

Fill blank: measured solubility kinetic of the molecule O=C(COC(=O)c1cccc(F)c1)Nc1cccnc1Cl is ____.
41.7 µg/mL

Fill blank: measured solubility kinetic of the molecule CC1CCCCC1NC(=O)COc1ccc(C#N)cc1 (centres undefined) is ____.
> 40.9 µg/mL

Fill blank: measured solubility kinetic of the molecule CCN1CCN(S(=O)(=O)c2ccc(C(C)(C)C)cc2)CC1 is ____.
45.6 µg/mL

Fill blank: measured solubility kinetic of the molecule CN1C2=CC=CC=CC2=[N+](C)C12C([N+](=O)[O-])=CC(=[N+]([O-])[O-])C=C2[N+](=O)[O-] (centres undefined) is ____.
0.7 µg/mL

Fill blank: measured solubility kinetic of the molecule Nc1cc(N2CCOCC2)c(Cl)cc1[N+](=O)[O-] is ____.
31.4 µg/mL

Fill blank: measured solubility kinetic of the molecule CCc1nc(N[C@H](C(=O)O)C(C)C)c2oc3ccccc3c2n1 is ____.
> 47 µg/mL

Fill blank: measured solubility kinetic of the molecule O=C(Nc1ccccc1)c1ccccc1C(=O)N1CCCCC1 is ____.
42.6 µg/mL

Fill blank: measured solubility kinetic of the molecule COc1cccc(OCC(=O)N(C)Cc2nc(-c3ccccc3)no2)c1 is ____.
36.6 µg/mL

Fill blank: measured solubility kinetic of the molecule CCCC(=O)Nc1ccc(NCc2ccc(C)s2)cc1 is ____.
> 43.3 µg/mL
